# measurementNotes: Kinetic solubility of the compound in phosphate buffered saline
# Format: physicochemical
# conditions: read-out: Kinetic_solubility
readoutKind: solubility kinetic

Inquiry: Could you tell me which solubility kinetic is on file for O=C(O)COc1ccc(Cl)cc1C#Cc1cccc(Cl)c1 ?
Reply text: > 200 µM

###

# measurementNotes: Clearance in BALB/c mouse at 5 mg/kg, po by LC/MS/MS analysis
# Format: ADME, organism-based
# Design: dose 5 mg/kg, route oral
# conditions: in vivo
Measured CL/F of individual entries
Reply with just the number (in mL/min/kg).

These solved cases illustrate the format of a correct answer.
| givenSmiles | readoutValue |
| --- | --- |
| O=C(O)COc1ccc(Cl)cc1C#Cc1ccc2c(c1)S(=O)(=O)c1ccccc1-2 | 1.67 |
| CCCS(=O)(=O)c1cccc(C#Cc2cc(Cl)ccc2OCC(=O)O)c1 | 5 |
| CS(=O)(=O)c1ccc(Cl)c(C#Cc2cc(Cl)ccc2OCC(=O)O)c1 | 11.7 |
| CCCS(=O)(=O)c1ccc(Cl)c(C#Cc2cc(Cl)ccc2OCC(=O)O)c1 | 16.7 |
| CN(C)S(=O)(=O)c1ccc(F)c(C#Cc2cc(Cl)ccc2OCC(=O)O)c1 | 10 |
| CC(C)c1ccc(S(C)(=O)=O)cc1C#Cc1cc(C#N)ccc1OCC(=O)O | 145 |
| COCCNS(=O)(=O)c1ccc(C)c(C#Cc2cc(Cl)ccc2OCC(=O)O)c1 | 33.3 |

Please examine the following record next.
Inquiry: Could you tell me which CL/F is on file for CCCS(=O)(=O)c1ccc(F)c(C#Cc2cc(Cl)ccc2OCC(=O)O)c1 ?
Reply text: 6.67

###

# systemUnderTest: Prostaglandin D2 receptor 2 (Homo sapiens)
# measurementNotes: Displacement of [3H]PGD2 from human CRTH2 expressed in chinese hamster CHO cells by liquid scintillation counting
readoutKind: Ki (nM)
Reply with just the number (in nM).

| givenSmiles | systemUnderTest | unitAnnotation | Ki |
| --- | --- | --- | --- |
| CC(C)Cc1ccncc1C#Cc1cc(Cl)ccc1OCC(=O)O | Prostaglandin D2 receptor 2 (Homo sapiens) | nM | 4.9 |
| Cc1ccc(S(=O)(=O)NC(C)(C)C)cc1C#Cc1cc(Cl)ccc1OCC(=O)O | Prostaglandin D2 receptor 2 (Homo sapiens) | nM | 5 |
| O=C(O)COc1ccc(Cl)cc1C#Cc1ccc(F)cc1F | Prostaglandin D2 receptor 2 (Homo sapiens) | nM | 101 |
| Cc1ccc(S(=O)(=O)N(C)C)cc1C#Cc1cc(Cl)ccc1OCC(=O)O | Prostaglandin D2 receptor 2 (Homo sapiens) | nM | 5 |
| Cc1ccc(S(=O)(=O)c2ccccc2)cc1C#Cc1cc(Cl)ccc1OCC(=O)O | Prostaglandin D2 receptor 2 (Homo sapiens) | nM | 6 |

Please examine the following record next.
Inquiry: Could you tell me which Ki is on file for O=C(O)COc1cc(F)ccc1C#Cc1ccccc1Cl ?
Reply text: 4780

###

Measured microsomal CLint at 1 µM of individual entries
# measurementNotes: Intrinsic clearance in human liver microsomes assessed per mg of protein at 1 uM by LC/MS/MS analysis
# Format: ADME, Microsome

These solved cases illustrate the format of a correct answer.
| givenSmiles | microsomal CLint at 1 µM |
| --- | --- |
| Cc1ccc(S(=O)(=O)NC(C)C)cc1C#Cc1cc(Cl)ccc1OCC(=O)O | < 10 µL/min/mg |
| Cc1ccc(S(=O)(=O)N2CCOCC2)cc1C#Cc1cc(Cl)ccc1OCC(=O)O | < 10 µL/min/mg |
| O=C(O)COc1ccc(Cl)cc1C#Cc1cccc(Cl)c1 | 12 µL/min/mg |
| Cc1ccc(S(C)(=O)=O)cc1C#Cc1cc(Cl)ccc1OCC(=O)O | 14 µL/min/mg |

Inquiry: Could you tell me which microsomal CLint at 1 µM is on file for CCCS(=O)(=O)c1ccc(Cl)c(C#Cc2cc(Cl)ccc2OCC(=O)O)c1 ?
Reply text: < 10 µL/min/mg

Inquiry: What do you have for CCNS(=O)(=O)c1ccc(C)c(C#Cc2cc(Cl)ccc2OCC(=O)O)c1 ?
Reply text: < 10 µL/min/mg

Inquiry: What do you have for Cc1ccc(S(=O)(=O)N(C)C)cc1C#Cc1cc(Cl)ccc1OCC(=O)O ?
Reply text: < 10 µL/min/mg

###

# measurementNotes: Clearance in BALB/c mouse at 0.2 mg/kg, iv and 1 mg/kg, po by LC/MS/MS analysis
# Format: ADME, organism-based
# conditions: in vivo
readoutKind: clearance
In your response, put the unit directly after the numeric value.

Inquiry: Could you tell me which clearance is on file for O=C(O)COc1ccc(Cl)cc1C#Cc1cccc(Cl)c1 ?
Reply text: 16.7 mL/min/kg

###

# measurementNotes: Percentage unbound in mouse plasma
# Format: ADME, cell-free
readoutKind: fraction unbound
Hey, just send me the number, nothing else.

Inquiry: Could you tell me which fraction unbound is on file for CCCS(=O)(=O)c1ccc(C)c(C#Cc2cc(Cl)ccc2OCC(=O)O)c1 ?
Reply text: 0.008

Inquiry: What do you have for CCCS(=O)(=O)c1ccc(Cl)c(C#Cc2cc(Cl)ccc2OCC(=O)O)c1 ?
Reply text: 0.006

Inquiry: What do you have for O=C(O)COc1ccc(Cl)cc1C#Cc1cccc(S(=O)(=O)CCO)c1 ?
Reply text: 0.3

Inquiry: What do you have for Cc1ccc(S(=O)(=O)NC(C)C)cc1C#Cc1cc(Cl)ccc1OCC(=O)O ?
Reply text: 0.01

###

# systemUnderTest: Prostaglandin D2 receptor 2 (Homo sapiens, UniProt Q9Y5Y4)
# measurementNotes: Displacement of [3H]PGD2 from human CRTH2 expressed in chinese hamster CHO cells by liquid scintillation counting
readoutKind: Ki
In your response, put the unit directly after the numeric value.

These solved cases illustrate the format of a correct answer.
| givenSmiles | readoutKind | readoutValue |
| --- | --- | --- |
| CS(=O)(=O)c1cc(C#Cc2cc(Cl)ccc2OCC(=O)O)ccc1-c1ccccc1Cl | Ki | 3.5 nM |
| O=C(O)COc1ccc(Cl)cc1C#Cc1ccc2c(c1)S(=O)(=O)C=C2 | Ki | 25 nM |
| Cc1ccc(S(=O)(=O)N(C)CC(C)C)cc1C#Cc1cc(Cl)ccc1OCC(=O)O | Ki | 4.2 nM |

Please examine the following record next.
Inquiry: Could you tell me which Ki is on file for CC(C)S(=O)(=O)c1ccc(F)c(C#Cc2cc(Cl)ccc2OCC(=O)O)c1 ?
Reply text: 4 nM

###

# systemUnderTest: Prostaglandin D2 receptor 2 (Homo sapiens, UniProt Q9Y5Y4)
# Sequence (Q9Y5Y4 whole entry): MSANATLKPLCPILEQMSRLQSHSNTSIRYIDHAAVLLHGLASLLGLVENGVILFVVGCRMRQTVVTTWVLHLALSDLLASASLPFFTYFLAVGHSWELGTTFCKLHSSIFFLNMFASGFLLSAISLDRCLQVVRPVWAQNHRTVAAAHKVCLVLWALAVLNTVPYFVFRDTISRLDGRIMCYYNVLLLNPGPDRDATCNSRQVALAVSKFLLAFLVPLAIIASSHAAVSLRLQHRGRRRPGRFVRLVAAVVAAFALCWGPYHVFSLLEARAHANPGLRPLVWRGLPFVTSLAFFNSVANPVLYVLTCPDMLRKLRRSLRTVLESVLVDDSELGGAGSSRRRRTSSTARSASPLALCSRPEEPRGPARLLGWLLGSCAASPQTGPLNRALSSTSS
# measurementNotes: Displacement of [3H]PGD2 from human CRTH2 expressed in chinese hamster CHO cells by liquid scintillation counting
Measured Ki of individual entries
Reply with just the number (in nM).

These solved cases illustrate the format of a correct answer.
| molecule | Ki, nM |
| --- | --- |
| O=C(O)COc1ccc(Cl)cc1C#Cc1cncc(S(=O)(=O)N2CCOCC2)c1 | 41 |
| O=C(O)COc1ccc(Cl)cc1C#Cc1ccc(Cl)s1 | 183 |
| CS(=O)(=O)c1ccc(F)c(C#Cc2cc(Cl)ccc2OCC(=O)O)c1 | 3.3 |

Inquiry: Could you tell me which Ki is on file for CCCc1ccncc1C#Cc1cc(Cl)ccc1OCC(=O)O ?
Reply text: 4.3

Inquiry: What do you have for Cc1ccncc1C#Cc1cc(Cl)ccc1OCC(=O)O ?
Reply text: 25

Inquiry: What do you have for CS(=O)(=O)c1cc(C#Cc2cc(Cl)ccc2OCC(=O)O)ccc1-c1ccc(Cl)cc1 ?
Reply text: 14

Inquiry: What do you have for CCN(Cc1cc(-c2ccc(OC)cn2)ccc1-c1cc(CC(=O)O)ccc1OC)C(=O)C1CC1 ?
Reply text: 5

Inquiry: What do you have for COCCNS(=O)(=O)c1ccc(C)c(C#Cc2cc(Cl)ccc2OCC(=O)O)c1 ?
Reply text: 3.6

Inquiry: What do you have for Cc1ccc(S(=O)(=O)N2CCN(C)CC2)cc1C#Cc1cc(Cl)ccc1OCC(=O)O ?
Reply text: 21

Inquiry: What do you have for Cc1ccc(S(=O)(=O)CCO)cc1C#Cc1cc(Cl)ccc1OCC(=O)O ?
Reply text: 19

Inquiry: What do you have for CC(C)S(=O)(=O)c1ccc(Cl)c(C#Cc2cc(Cl)ccc2OCC(=O)O)c1 ?
Reply text: 2.9
